The origin of these recorded values is PubChem BioAssay (NCI).

# Tested on: COLO 205 colon
# Assay procedure: NCI tumour cell line growth inhibition, 48 h; in the data active = GI50 below about 0.43 µM; inactive = the rest
Possible outcomes: active, inactive

Compound	Category label
Nc1nc(N)c2cc(CNc3ccc(C(=O)NC(CC(=O)O)C(=O)O)cc3)ccc2n1 (centres undefined)	inactive
CC(=O)[CH-]C(C)=O.CC(=O)[CH-]C(C)=O.[CH2-]CCCCCCC.[CH2-]CCCCCCC.[Sn+4]	inactive
COc1ccc(/C=C/C(=O)c2cccc(B(O)O)c2)cc1O	inactive
CC1CN1C1=CC(=O)c2c(c(CO)cn2C)C1=O (centres undefined)	active
COC(=O)[C@@H](C[C@H](Cc1ccccc1)NC(=O)c1csc([C@@H](C[C@H](C(C)C)N(C)C(=O)[C@@H](NC(=O)[C@H]2CCCCN2C)C(C)C)OC(C)=O)n1)NC(=O)OCc1ccccc1	active
Cn1cc(C2=C(c3cn(CCCO)c4ccccc34)C(=O)NC2=O)c2ccccc21	inactive
CC(C)[C@]12O[C@H]1[C@@H]1O[C@]13[C@]1(O[C@H]1C[C@H]1C4=C(CC[C@@]13C)C(=O)OC4)[C@@H]2OC(=O)CN(C)C	active
CCOC(=O)c1cc2c(c3ccsc13)C1(C)CCC3c4ccc(OC)cc4CCC3C1C2 (centres undefined)	inactive
Clc1ccc(/C=C2\CCCC3C2=Nc2ccccc2NC3c2ccc(Cl)cc2)cc1 (centres undefined)	inactive

###

# Tested on: HCT-15 colon
# Assay procedure: NCI tumour cell line growth inhibition, 48 h
Each entry below carries its recorded TGI.

Molecule	TGI
CCC12CCCN(Cc3ccccc3)C1c1c(n(C)c3ccccc13)[C@H](C(=O)OC)C2 (stereo not given in full)	> 239 µM
Cc1cccc(C)c1NC(=O)C(=O)C(C#N)c1ccccc1Cl (stereo not given)	> 100 µM
NC(=O)C1(c2ccccc2)Nc2ccccc2S1 (stereo not given)	> 100 µM
CCC(C(C)N1CC(=O)NC(=O)C1)N1CC(=O)NC(=O)C1 (stereo not given)	> 100 µM
C[C@]12CCC3c4ccc(O)cc4CCC3C1CC[C@@]2(O)C#Cc1ccc(C#C/C=C\C#Cc2ccccc2N)cc1 (stereo not given in full)	> 100 µM
NC(=O)c1cccc(N2Cc3ccccc3OC3=C2C(=O)c2c(O)ccc(O)c2C3=O)c1	0.724 µM
COc1ccc(-c2cc(-c3cc(F)c(Cl)cc3Cl)[nH]n2)cc1OC	> 100 µM
COc1ccc(C=Nc2c(O)ccc3ccccc23)cc1OC	> 100 µM
CCN(CC)c1ccc(/C=C2\SC(=O)C(Nc3nnc(-c4cccnc4SCc4ccccc4)o3)C2=O)cc1 (stereo not given)	> 100 µM
COC(=O)C1=C(O)[C@H](C(=O)OC)C2(O)[C@@H](C(=O)OC)[C@H]1C[C@@H](c1ccc(OC(=O)n3ccnc3)cc1)[C@@H]2C(=O)OC	> 50 µM
O=C(/C=C1\C[C@H]2C=Nc3ccccc3C(=O)N2C1)NCCCNC(=O)/C=C1\C[C@H]2C=Nc3ccccc3C(=O)N2C1	36.9 µM
Cc1c2cnccc2c(C)c2c1c1cc(CO)ccc1n2C	1.31 µM
O=c1[nH]nc(Cc2ccccc2)n1/N=C\CC/C=N\n1c(Cc2ccccc2)n[nH]c1=O	75 µM
COC(=O)[C@]12CSCN1C(=O)C(C(C)=O)=NN2C(=O)[C@](OC)(c1ccccc1)C(F)(F)F	> 100 µM
O=C(OCCN=C1c2ccccc2CCc2ccccc21)c1ccccc1	> 100 µM
C=CC(=O)NC(O)(C(=O)OCC)C(F)(F)F (stereo not given)	> 100 µM
Cc1cc(O)c2c3c1C(=O)Oc1c(CO)c(O)c(C(=O)O)c(c1O3)C=NN=Cc1c3c(c(CO)c(O)c1C(=O)O)OC(=O)c1c(C)cc(O)c(c1O3)C=NN=C2	> 100 µM
Nc1nc2c(nc(N)n2Cc2ccccc2)c(=O)[nH]1	> 100 µM
CCCNC(=O)C(C)(Cl)C(=O)c1ccccc1O (stereo not given)	> 100 µM
CCN(CC)CCN1C=CC(C)C(C(=O)O)C1C(N)=O (stereo not given)	> 100 µM
CCOC(=O)C1=C(C)N(c2ccc(OC)cc2)C2(O)C=CC(=O)C3C(=O)N(c4ccccc4)C(=O)C132 (stereo not given)	6.5 µM
COC(=O)[C@@H](C[C@H](Cc1ccccc1)NC(=O)c1csc([C@@H](C[C@H](C(C)C)N(C)C(=O)[C@@H](NC(=O)[C@H]2CCCCN2C)C(C)C)OC(C)=O)n1)NC(=O)OCc1ccccc1	> 8.33 µM
FC(F)(F)c1cccc(Nc2nc3ccccc3nc2Nc2cccc(C(F)(F)F)c2)c1	2.05 µM
N=C(N)SCCc1ccncc1	> 100 µM
c1ccc2c(c1)SC1=Nc3sc4ccccc4[n+]3CN12	> 100 µM
CCCCCCc1nn2c(-c3ccncc3)nnc2s1	> 10 µM
Cc1nc2cc(-n3c(-c4ccc(F)cc4)nc4ccccc4c3=O)ccc2n1Cc1ccccc1	11.6 µM
CCOC(=O)C1C(=O)C(C(=O)OCC)C(c2ccccc2)N(C)C1c1ccccc1 (stereo not given)	> 100 µM
CC(C)=CC1CCc2ccccc2N1S(=O)(=O)c1ccc(C)cc1 (stereo not given)	> 31.6 µM
CN(C)CCCN1c2ccccc2CCc2cccc([N+](=O)[O-])c21	29.6 µM
O=C(Nc1cccc(-c2cccc(F)c2)c1)C1CCN(Cc2cccc3cccnc23)CC1	5.16 µM
COc1ccc(CCn2nccc2C)cc1	> 100 µM
COc1ccc(NC(=O)C2C(=O)N(c3ccc(OC)cc3)C(=O)/C2=N\N)cc1 (stereo not given)	> 100 µM
CC(=NC1CCCCC1)c1ccccc1O	> 100 µM
CCN(CC)c1ccc2cc(-c3nc(-c4ccccc4)n[nH]3)c(=O)oc2c1	> 100 µM
Cc1cc(C)c(OC(=O)Nc2cccc3ccccc23)c(-c2ccccc2)c1	> 100 µM
CC1(C)C(OC(=O)c2ccccc2)C[C@]23CCC[C@](C)(C[C@@H](O)C12)C3 (stereo not given in full)	37.1 µM
O=C(O)CCCn1c(SCc2c(Cl)cccc2Cl)nc2ccsc2c1=O	> 100 µM
COc1ccc(OC)c(N2C(=O)/C(=C\c3ccccc3)SC2c2cc(OC)c(OC)c(OC)c2)c1 (stereo not given)	> 100 µM
O=C(/C=C/c1ccc(OCCSCCCCCCCCCCSCCOc2ccc(/C=C/C(=O)c3ccc(Cl)cc3)cc2)cc1)c1ccc(Cl)cc1	> 100 µM

###

# Tested on: UACC-257 melanoma
# Assay procedure: NCI tumour cell line growth inhibition, 48 h; in the data active = GI50 below about 0.43 µM; inactive = the rest
Outcome codes: active, inactive

> print(dat)
                                    compound  category.label
 1  O=C(Nc1cccc(-c2cccc(F)c2)c1)C1CCN(Cc2cccc3cccnc23)CC1        inactive
 2  Cc1nc2cc(-n3c(-c4ccc(F)cc4)nc4ccccc4c3=O)ccc2n1Cc1ccccc1        inactive
 3  O=C(O)CCCn1c(SCc2c(Cl)cccc2Cl)nc2ccsc2c1=O        inactive
 4       CCCCCCCCCCCC[n+]1c(C)cc(N)c2ccccc21          active
 5  CC1CN1C1=CC(=O)c2c(c(CO)cn2C)C1=O (centres undefined)        inactive
 6  CCOC(=O)/C=C/C1=C(c2csc3ccccc23)c2ccccc2CC1        inactive
 7  CC1(C)C(=O)/C(=C\c2ccccn2)C[C@]2(C)[C@H]3CC[C@@H]4[C@@H](C(=O)/C=C/c5ccccn5)CC[C@@]4(C)[C@]3(C)CC[C@@H]12        inactive
 8  COc1cccc(/C=N/Nc2ncnc3c2cnn3-c2cccc(OC)c2)c1        inactive
 9  CN1CCN(CCn2c3c4ccccc4ccc3c3oc(=O)c4ccccc4c32)CC1        inactive
10  CN1CCN(c2ccc3nc(-c4c5cccccc-5[nH]c4=O)[nH]c3c2)CC1        inactive
11  CCN(CC)c1ccc(/C=C2\SC(=O)C(Nc3nnc(-c4cccnc4SCc4ccccc4)o3)C2=O)cc1 (centres undefined)        inactive
12        Cc1c2cnccc2c(C)c2c1c1cc(CO)ccc1n2C          active
13    COc1ccc(/C=C/C(=O)c2cccc(B(O)O)c2)cc1O        inactive
14  Cc1ccc(-c2cc(C(=O)N3N=C(c4ccc(N)cc4)CC3c3ccc(Cl)cc3)c3ccccc3n2)cc1 (centres undefined)        inactive
15  O=C1c2ccccc2C(=O)c2c(N=Nc3[nH]c(=S)[nH]c3O)cccc21        inactive
16  CCN(CC)CCOc1ccc(/C=C2\CC3C4CC=C5C[C@@H](N6CCCC6)CC[C@]5(C)C4CC[C@]3(C)[C@H]2OC(C)=O)cc1OC (some centres undefined)        inactive
17  CN([O-])c1nc(N(C)[O-])nc(N2CCOCC2)n1.CN([O-])c1nc(N(C)[OH2+])nc(N2CCOCC2)n1.[Fe+3]        inactive
18  COC(=O)C1=C(O)[C@H](C(=O)OC)C2(O)[C@@H](C(=O)OC)[C@H]1C[C@@H](c1ccc(OC(=O)n3ccnc3)cc1)[C@@H]2C(=O)OC        inactive
19  Cc1c(C(N)=O)sc2c1c(=O)n(Cc1ccccc1)c1nnc(SCC(=O)Nc3ccc(Cl)cc3)n21        inactive
